- SYSTEM: UniProt Q8N884
- Sequence (Q8N884 whole entry): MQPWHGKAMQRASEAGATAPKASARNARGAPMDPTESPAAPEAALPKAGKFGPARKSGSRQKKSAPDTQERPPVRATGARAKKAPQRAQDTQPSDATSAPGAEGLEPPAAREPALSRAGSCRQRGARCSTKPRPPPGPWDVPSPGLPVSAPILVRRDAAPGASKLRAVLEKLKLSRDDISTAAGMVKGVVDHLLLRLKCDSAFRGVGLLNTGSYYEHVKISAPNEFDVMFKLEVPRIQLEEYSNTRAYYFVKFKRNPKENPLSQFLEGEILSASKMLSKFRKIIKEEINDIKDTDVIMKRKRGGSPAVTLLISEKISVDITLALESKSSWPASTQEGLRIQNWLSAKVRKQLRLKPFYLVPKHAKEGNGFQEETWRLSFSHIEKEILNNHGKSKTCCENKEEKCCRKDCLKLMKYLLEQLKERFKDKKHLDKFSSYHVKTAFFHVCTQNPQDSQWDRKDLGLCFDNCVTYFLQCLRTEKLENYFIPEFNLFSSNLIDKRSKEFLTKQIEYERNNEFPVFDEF
pIC50: −log10 of the molar value.
Quick reference for pIC50 among some compounds

COMPOUND: O=C(Nc1nnc(C(F)F)s1)c1onc2ccccc12
pIC50: ≤ 6.00
//
COMPOUND: N#Cc1nnc(NC(=O)c2onc3c2ccc2cccnc23)s1
pIC50: 6.30 to 7.00
//
COMPOUND: CSc1nnc(NC(=O)c2onc3cc(C)ccc23)s1
pIC50: 6.30 to 7.00
//
COMPOUND: CSc1nnc(NC(=O)c2nnc(-c3c(F)cccc3F)o2)s1
pIC50: 6.00 to 6.30
//
COMPOUND: CSc1nnc(NC(=O)c2noc(N3CCCCC3c3ccccc3)n2)s1 (centres unmarked)
pIC50: 6.00 to 6.30
//
COMPOUND: O=C(Nc1nnc(-c2ccccc2Cl)s1)c1onc2ccccc12
pIC50: 6.30 to 7.00

What measured pIC50 goes with O=C(Nc1ccccc1)c1cc(C(=O)Nc2nnc(-c3ccccc3Cl)s2)on1 ?
6.30 to 7.00

What measured pIC50 goes with CSc1nnc(NC(=O)c2cc(C(=O)O)no2)s1 ?
6.30 to 7.00

What measured pIC50 goes with CSc1nnc(NC(=O)c2cc(-c3ccsc3)no2)s1 ?
6.00 to 6.30

What measured pIC50 goes with CSc1nnc(NC(=O)c2noc(-c3ccccc3)n2)s1 ?
6.00 to 6.30

What measured pIC50 goes with CSc1nnc(NC(=O)c2onc3c2CCCC3O)s1 (centres unmarked) ?
≤ 6.00

What measured pIC50 goes with O=C(Nc1nnc(-c2ccccc2Cl)s1)c1cc(Nc2ccccc2)cc(=O)o1 ?
> 7.00

What measured pIC50 goes with O=C(Nc1nnc(-c2ccccc2)s1)c1onc2ccccc12 ?
≤ 6.00

What measured pIC50 goes with CSc1nnc(NC(=O)c2cc(-c3cccs3)no2)s1 ?
6.00 to 6.30
